Assay system: 5-hydroxytryptamine receptor 1A (Sus scrofa)
Assay explanation: Compound was tested in vitro for its ability to compete with [3H]8-OH-DPAT at 5-hydroxytryptamine 1A receptor in porcine brain homogenate
Attribute measured: Ki (nM)
Respond numerically; units are nM and should not be typed.

Short answer please: Ki, 5-hydroxytryptamine receptor 1A (Sus scrofa), entry `N#Cc1cccc2c(CN3CCN(c4ccc(Cl)cc4)CC3)cnn12` 2200
